The reported numbers originate from patent US20180290961A1.

Test: physchem
Settings: 20 °C, water
# solubility values compiled below

INSERT INTO assay_data (smiles_repr, assay_result) VALUES
  ('CSCC[C@H](N)C(=O)O', '≤ 50 mg/mL'),
  ('N[C@@H](Cc1ccccc1)C(=O)O', '≤ 50 mg/mL'),
  ('CC[C@H](C)[C@H](N)C(=O)O', '≤ 50 mg/mL'),
  ('O=C(O)c1ccccc1O', '≤ 15 mg/mL'),
  ('O=C(O)/C=C/C(=O)O', '≤ 15 mg/mL');

The measured solubility associated with `N[C@@H](Cc1c[nH]cn1)C(=O)O` reads ≤ 50 mg/mL

// `CC(C)C[C@H](N)C(=O)O` : solubility value = ≤ 50 mg/mL
